# system: IRAK4 (Homo sapiens)
# Sequence (Q9NWZ3 whole entry): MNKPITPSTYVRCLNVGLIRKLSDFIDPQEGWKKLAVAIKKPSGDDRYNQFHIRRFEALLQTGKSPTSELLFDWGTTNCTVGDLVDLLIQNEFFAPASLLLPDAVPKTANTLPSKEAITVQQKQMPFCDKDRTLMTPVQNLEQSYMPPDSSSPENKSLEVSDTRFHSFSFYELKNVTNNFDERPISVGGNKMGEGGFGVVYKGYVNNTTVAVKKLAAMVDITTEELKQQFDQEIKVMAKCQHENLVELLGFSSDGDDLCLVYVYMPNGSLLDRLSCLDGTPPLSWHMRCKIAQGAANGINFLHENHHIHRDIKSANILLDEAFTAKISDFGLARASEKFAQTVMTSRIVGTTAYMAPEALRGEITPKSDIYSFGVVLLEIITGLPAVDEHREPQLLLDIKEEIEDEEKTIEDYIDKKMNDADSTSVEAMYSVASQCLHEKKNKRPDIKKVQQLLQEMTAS
# assay.text: THP-1 degradation assay (western blot, % IRAK4 degraded after 24 hours)
# Assay type: cell-based
# Design: endogenous in cells
# measurement.parameters: THP-1 cells
parameter: THP-1 24 h % IRAK4 Degradation

{"molecule": "COc1cc(Nc2nc(N[C@H]3CCCC[C@H]3N)n3ccnc3c2C(N)=O)cc(OC)c1OCCOCCOCCOCCNc1cccc2c1C(=O)N(C1CCC(=O)NC1=O)C2=O (stereo partly drawn)", "parameter": "THP-1 24 h % IRAK4 Degradation", "experimental.value": "C (<20% degradation)"}
{"molecule": "O=C(CN1CCC(NC(=O)c2cnc(Nc3ccc4cnccc4n3)cc2NC2CC2)CC1)NCCOCCOCCNc1cccc2c1C(=O)N(C1CCC(=O)NC1=O)C2=O (stereo not drawn)", "parameter": "THP-1 24 h % IRAK4 Degradation", "experimental.value": "C (<20% degradation)"}
{"molecule": "O=C1CCC(N2C(=O)c3cccc(NCCOCCOCCOCCOCCOCC(F)CNC(=O)c4cnc(Nc5ccc6cnccc6n5)cc4NC4CC4)c3C2=O)C(=O)N1 (stereo not drawn)", "parameter": "THP-1 24 h % IRAK4 Degradation", "experimental.value": "B (>20-50% degradation)"}
{"molecule": "Cc1ncsc1-c1ccc(CNC(=O)[C@@H]2C[C@@H](O)CN2C(=O)[C@@H](NC(=O)COCCOCCOCCOCCOCCOCC(F)CNC(=O)c2cnc(Nc3ccc4cnccc4n3)cc2NC2CC2)C(C)(C)C)cc1 (stereo partly drawn)", "parameter": "THP-1 24 h % IRAK4 Degradation", "experimental.value": "B (>20-50% degradation)"}
{"molecule": "O=C1CCC(N2C(=O)c3cccc(NCCOCCOCCOCCOCC(F)CNC(=O)c4cnc(Nc5ccc6cnccc6n5)cc4NC4CC4)c3C2=O)C(=O)N1 (stereo not drawn)", "parameter": "THP-1 24 h % IRAK4 Degradation", "experimental.value": "B (>20-50% degradation)"}

As a next step, examine the molecule that follows.
Data request, read-out THP-1 24 h % IRAK4 Degradation, for Cc1ncsc1-c1ccc(CNC(=O)[C@@H]2C[C@@H](O)CN2C(=O)C(NC(=O)COCCOCCOCCOCCNC(=O)[C@H]2CC[C@H](NC(=O)c3cnc(Nc4ccc5cnccc5n4)cc3NC3CC3)CC2)C(C)(C)C)cc1 (stereo partly drawn)
C (<20% degradation)

----------
# assay.text: Pharmacokinetics in Sprague Dawley rats (plasma and brain concentrations, PK parameters)
# Format: in vivo
# measurement.parameters: Sprague Dawley, rat, plasma, po, 10 mg/kg, Sprague Dawley rat, po 10 mg/kg, plasma, 0.5 h, Rat 6; read-out: Concentration Rat 6
parameter: concentration at 0.5 h (ng/mL)
Write the value in ng/mL as a bare number.

Data request, read-out concentration at 0.5 h, for O=C1CCC(N2C(=O)c3cccc(NCCOCCOCCNCc4ccc(-n5cc(NC(=O)c6coc(-c7ccnc(NCC8CC8)c7)n6)c(C(F)F)n5)cc4)c3C2=O)C(=O)N1 (stereo not shown) [I-210]
0.377

----------
# assay.text: Pharmacokinetics in Sprague Dawley rats (plasma and brain concentrations, PK parameters)
# Assay type: in vivo
# measurement.parameters: Sprague-Dawley, rat, plasma, iv, 3 mg/kg, Sprague Dawley rat, iv 3 mg/kg, plasma, 4 h, Rat 2; read-out: Concentration Rat 2
parameter: concentration at 4 h

Data request, read-out concentration at 4 h, for O=C1CCC(N2C(=O)c3cccc(NCCOCCOCCNCc4ccc(-n5cc(NC(=O)c6coc(-c7ccnc(NCC8CC8)c7)n6)c(C(F)F)n5)cc4)c3C2=O)C(=O)N1 (stereo not shown)
0.0777 µg/mL
